Measured values drawn from PubChem BioAssay AID1188 for this set.

- Test system: Fathead minnow (Pimephales promelas) acute toxicity, lethality
- measurement-description: DSSTox (EPAFHM) EPA Fathead Minnow Acute Toxicity

# compound, Potency
data = [
    ("CCC(=O)O", "49900 µM"),
    ("O=S(c1ccccc1)c1ccccc1", "432 µM"),
    ("Nc1ccc([N+](=O)[O-])cc1[N+](=O)[O-]", "80.8 µM"),
    ("CCCCCCCCCCc1ccc(N)cc1", "0.266 µM"),
    ("O=Cc1cc(Br)ccc1O", "6.46 µM"),
    ("CCCCC(CC)CO (stereo unspecified)", "217 µM"),
    ("CCCCSCCCC", "24.5 µM"),
    ("O=C1CCCCC1", "6330 µM"),
    ("CC/C=C\\CCO", "3800 µM"),
    ("OCC(Br)CBr (stereo unspecified)", "326 µM"),
    ("Cc1cccnc1", "1550 µM"),
    ("N#Cc1ccccc1C(F)(F)F", "247 µM"),
    ("CC(C)C(C)N (stereo unspecified)", "3260 µM"),
    ("O=C(NC1CCCCC1)OCCCl", "170 µM"),
    ("O=[N+]([O-])c1cc([N+](=O)[O-])c(Cl)cc1Cl", "0.192 µM"),
    ("CCN(CCO)c1cccc(C)c1", "295 µM"),
    ("CCC(=O)CC", "17900 µM"),
    ("Cc1cc(C(C)(C)C)c(O)c(C(C)(C)C)c1", "1.65 µM"),
    ("CCC1(c2ccccc2)C(=O)NC(=O)NC1=O", "2080 µM"),
    ("CC(C)=CC1C(C(=O)OCc2coc(Cc3ccccc3)c2)C1(C)C (stereo unspecified)", "0.0182 µM"),
    ("Cc1ccncc1", "4330 µM"),
    ("COc1ccc(OC)c(C(=O)CBr)c1", "2.55 µM"),
    ("CC(C)=CC=C(C)C", "34.3 µM"),
    ("O=[N+]([O-])c1ccc(O)c([N+](=O)[O-])c1", "59.2 µM"),
    ("CCOP(=S)(OCC)SCCSCC", "9.95 µM"),
    ("CCCCCCCCC(C)=O", "30.9 µM"),
    ("Nc1cccc(OCc2ccccc2)c1", "45.9 µM"),
    ("Oc1ccc(Cl)cc1", "47.5 µM"),
    ("CC1(C)CC(=O)CC(=O)C1", "82000 µM"),
    ("CC(O)CCl (stereo unspecified)", "2590 µM"),
    ("CCOC(C)=O", "2610 µM"),
    ("Oc1c(Br)cc(Br)cc1Br", "19.8 µM"),
    ("CC(C)(C)c1ccc(C(N)=O)cc1", "180 µM"),
    ("CCCOC(C)=O", "587 µM"),
    ("CC#N", "40100 µM"),
    ("CCCCCCCCCCCCCN", "0.328 µM"),
]

====

- Test system: Fathead minnow (Pimephales promelas) acute toxicity, lethality
- measurement-description: DSSTox (EPAFHM) EPA Fathead Minnow Acute Toxicity

# molecule, assayed-target, Potency
data = [
    ("CC1(C)[C@H]2CC[C@]1(C)C(=O)C2", "Fathead minnow (Pimephales promelas) acute toxicity, lethality", "112 µM"),
    ("C=C(C)C(=O)OCCOCC", "Fathead minnow (Pimephales promelas) acute toxicity, lethality", "175 µM"),
    ("CC(C)(C)c1cc(C(C)(C)C)c(O)c(C(C)(C)C)c1", "Fathead minnow (Pimephales promelas) acute toxicity, lethality", "0.232 µM"),
    ("CCNCc1ccccc1", "Fathead minnow (Pimephales promelas) acute toxicity, lethality", "422 µM"),
    ("O=C(O)C[n+]1ccccc1", "Fathead minnow (Pimephales promelas) acute toxicity, lethality", "933 µM"),
    ("C=C[C@@]1(C)CC[C@H]2C(=CC[C@@H]3[C@]2(C)CCC[C@@]3(C)C(=O)O)C1", "Fathead minnow (Pimephales promelas) acute toxicity, lethality", "2.88 µM"),
    ("C/C=N/O", "Fathead minnow (Pimephales promelas) acute toxicity, lethality", "1290 µM"),
    ("CCOc1cc(C=O)ccc1O", "Fathead minnow (Pimephales promelas) acute toxicity, lethality", "527 µM"),
    ("Oc1cccnc1Br", "Fathead minnow (Pimephales promelas) acute toxicity, lethality", "2700 µM"),
    ("COc1cccc(OC)c1C", "Fathead minnow (Pimephales promelas) acute toxicity, lethality", "133 µM"),
    ("O=Cc1cc(Cl)ccc1O", "Fathead minnow (Pimephales promelas) acute toxicity, lethality", "4.92 µM"),
    ("Cc1cccc(Cl)n1", "Fathead minnow (Pimephales promelas) acute toxicity, lethality", "1820 µM"),
    ("CC(C)C1=CC2=CC[C@@H]3[C@](C)(CCC[C@@]3(C)C(=O)O)[C@H]2CC1", "Fathead minnow (Pimephales promelas) acute toxicity, lethality", "7.87 µM"),
    ("C#CCC(C)O (stereo not given)", "Fathead minnow (Pimephales promelas) acute toxicity, lethality", "417 µM"),
    ("CCCCCCCCCc1ccc(O)cc1", "Fathead minnow (Pimephales promelas) acute toxicity, lethality", "0.635 µM"),
]
